Data credit: PubChem BioAssay (NCI)

System: MCF7 breast
Assay: NCI-60 one-dose screen, 48 h
Conditions: 10 µM
Experimental: Growth inhibition of the MCF7 human tumor cell line is measured as a screen for anti-cancer activity. Cells are grown in 96 well plates and exposed to the test compound for 48 hours. Compounds are tested at a single concentration, which is 10^-5 M for most compounds. The reported endpoint is percent growth (GI% or GIPRCNT), where numbers from 0 - 100% represent growth inhibition, and numbers from -100% - 0 represent cell death. For example, a value of 40 represents 60% growth inhibition. […]
Compounds without any hit were thinned out: in the full panel of roughly 83,000, 20% have a hit. Activity calls are given as the source filed them. The calls were made as follows: active = growth percent below 10; inactive = the rest.
The categories you may choose from are class 1 = active, class 0 = inactive

| Compound | Assay target | Label class |
| --- | --- | --- |
| NC1=NC(c2ccccc2)C2=C(N1)/C(=C/c1ccccc1)CCC2 (stereo unspecified) | MCF7 breast | class 0 |
| COc1cccc(C2C(C#N)=C(N)Oc3cc(N)ccc32)c1 (stereo unspecified) | MCF7 breast | class 0 |
| Oc1ccc(/C=N/N=C2c3ccccc3-c3ccccc32)c(O)c1 | MCF7 breast | class 0 |
| CC(=O)C1CCC2C3CC=C4CC(SC(=N)N)CCC4(C)C3CCC12C (stereo unspecified) | MCF7 breast | class 1 |
| C[C@]12CCC3c4ccc(O)cc4C[C@@H](CCCCCCCCCS(=O)CCCC(F)(F)C(F)(F)F)C3C1CC[C@@H]2O (stereo partly specified) | MCF7 breast | class 0 |

Incoming: For `CCn1c(CSc2nc3ccccc3c(=O)n2CCc2ccccc2)n[nH]c1=S` , which call appears in the assay record?
Outgoing: class 0

Incoming: Given `Clc1nc2ccccc2cc1Cn1nnc(Cc2ccccc2)n1` , state the outcome it received in this test.
Outgoing: class 0

Incoming: Answer briefly: the call reported for `CC1(C)N=C(N)N=C(N)N1c1cccc(C#N)c1` in this assay.
Outgoing: class 0

---

Here the recorded growth is given for each entry.
tested on: HT29 colon; experiment: NCI-60 one-dose screen, 48 h (100 = growth as untreated, 0 = no growth, -100 = all killed); settings: 10 µM
Compounds without any hit were thinned out: in the full panel of roughly 83,000, 20% have a hit.
Enter your answer as a number in %; do not include the unit.

Some compounds with known growth results, for comparison:
| Compound | Recorded number |
| --- | --- |
| Nc1ccc(/C=N/Nc2ccnc3c(O)cccc23)c2cccnc12 | 56.8 |
| COC1=CC(=O)OC(c2ccc(OC)cc2)C1 (stereo not given) | 110 |
| CCOC(=O)c1cc(C(=O)c2cc(OC)c(OC)c(OC)c2)n2ccc(-c3cc[n+](CC(=O)c4cc(OC)c(OC)c(OC)c4)cc3)cc12 | -10.1 |

Incoming: # get_value(readout='growth', item= `COc1cc(-c2nn(-c3cccc(NC(=O)CCNc4ccc(N5CCOCC5)cc4)c3)cc2-c2ccncc2)ccc1Cl` )
Outgoing: 11.8

Incoming: Query (compound): `COc1ccc(-c2onc(N)c2-c2cc(OC)c3c(c2)OCO3)cc1` ; field requested: growth
Outgoing: 7

---

tested on: MDA-MB-231 breast; assay: NCI-60 one-dose screen, 48 h; conditions: 10 µM
This is part of a sample that, as a whole, favours compounds with a hit. Of some 83,000 tested, about 20% had one in any assay. Active and inactive are the calls of the source. Rule for the calls: active = growth percent below 10; inactive = the rest.
Outcome (select one): active, inactive

See these solved cases before continuing.
| Compound | Label class |
| --- | --- |
| CN(C)c1ccc(/C=N/NC(=O)c2cccc3ccccc23)c(Cl)c1 | inactive |
| OC(CCN1CCCC1)(c1ccccc1)C1CCCCC1 (centres undefined) | inactive |
| COc1ccc2c(c1)C(=O)/C(=C/c1cccc(OCC(=O)c3ccc([N+](=O)[O-])cc3)c1)CO2 | inactive |
| CCCCC/C=C/C/C=C/CCCCCCCC1=NC(C)(C)CN1C(C)C | inactive |
| O=C(N/N=C/c1c(Cl)cccc1Cl)c1ccccc1Nc1cccc(C(F)(F)F)c1 | inactive |

Incoming: Test call, this compound: `C=CCSC(CC)(CC)C(=O)NC`
Outgoing: inactive

Incoming: Just curious, what result did `Nc1nc(Cn2c(-c3nonc3N)nc3ccccc32)nc(N2CCCCC2)n1` get here?
Outgoing: inactive

Incoming: What did the test return for `O=C1/C=C/[C@@H](O)[C@@H]2C[C@@H](O)C[C@H]2/C=C/CCC[C@@H](C(F)(F)F)O1` ?
Outgoing: inactive

Incoming: How was `Cc1cc(NC(=O)c2ccc(C)c(Nc3nccc(-c4cccnc4)n3)c2)cc(-n2cnc(C)c2)c1` classified in this test?
Outgoing: inactive

Incoming: Dear all, I need the recorded test outcome for `CCOC(=O)c1cc(C(=O)c2cc(OC)cc(OC)c2)n2nc(C)ccc12` , thank you.
Outgoing: inactive
